molecular target: T1, recombinant BACE1 (BACE1 extracellular domain, R&D Systems Cat#931-AS) (UniProt P56817 22-457); experiment: SPR Biacore
T1 construct: extracellular domain; also called BACE1 extracellular domain protein
T1 sequence (P56817 22-457): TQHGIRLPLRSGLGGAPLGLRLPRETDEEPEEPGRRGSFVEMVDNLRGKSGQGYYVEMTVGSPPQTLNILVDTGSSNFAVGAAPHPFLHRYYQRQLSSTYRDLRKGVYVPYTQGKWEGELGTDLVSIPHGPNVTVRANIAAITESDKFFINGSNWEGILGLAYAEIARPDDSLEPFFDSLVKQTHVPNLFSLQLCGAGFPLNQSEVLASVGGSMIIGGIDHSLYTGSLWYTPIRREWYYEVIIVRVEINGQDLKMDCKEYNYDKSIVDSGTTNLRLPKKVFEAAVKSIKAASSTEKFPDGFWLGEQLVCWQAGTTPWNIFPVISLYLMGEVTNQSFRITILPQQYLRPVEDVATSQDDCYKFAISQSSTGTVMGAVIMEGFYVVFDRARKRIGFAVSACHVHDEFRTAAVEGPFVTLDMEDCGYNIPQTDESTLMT
MEASURED ATTRIBUTE: Kd (nM)
One number for each entry, in nM.

Answered examples (3):
{"BINDER": "2H8.20 (antibody, human IgG1, V domains shown, human IgG1/kappa; also called 2H8_HCvar2 + 2H8_LCvar4) VH: EVQLQQPGTELVRPGTSVKLSCKASGYTFTNYWMHWIKQRPGQGLEWIGMIDPSDTYTKFNQNFKGKATLTVDTSSSTAYMQLNSLTSEDSAVYYCARSGVAFPYWGQGTTVTVSS VL: DIVMTQSQKFMSTSVGDRVSITCKASQNVGTNVAWYQQKPGQSPKALIYSASYRYSGVPDRFTGSGSGTDFTLTISNVQSEDLAEYFCQQYNSYPYTFGGGTKLEIK", "Kd, nM": 93.4}
{"BINDER": "2H8.16 (antibody, human IgG1, V domains shown, human IgG1/kappa; also called 2H8_HCvar4 + 2H8_LCvar3) VH: EIQLQQSGTELVRPGTSVKLSCKASGYTFTNYWMHWVKQRPGQGLEWIGMIDPSAAYTNYNQNFKGKATLTVDTSSGTAYMQLSSLTSEDSAVYYCARSGVAFPYWGQGTTVTVSS VL: DIQMTQSQKFMSTSIGDRVSVTCKASQNVGTNVAWYQQKPGQSPKSLIYSASHWYSGVPDRFTGSGSGTDFTLTISNVQSEDLAEYFCQQYNSYPYTFGGGTKLEIK", "Kd, nM": 37.8}
{"BINDER": "2H8.05 (antibody, human IgG1, V domains shown, human IgG1/kappa; also called 2H8_HCvar5 + 2H8_LC) VH: EVQLQQPGAEVVRPGTSVKLSCKASGYTFTNYWMHWVKQRPGQGLEWIGMIDPSDNYTKYNQKLKGKATLTVDTSSSTANMHVNSLTSEDSAVYFCARSGVAFPYWGQGTLVTVSA VL: DIVMTQSQKFMSKSVGDTVSVTCKASQDVGRNVAWYQQKSGQSPKSLIYSASHRYSGVPDRFTGSGSGTDFTLTISNVQSEDLADYFCQQYNSYPYTFGGGTRLEIK", "Kd, nM": 13.7}

Hey, quick one: what's Kd for each of these?
1. 2H8.38 (antibody, human IgG1, V domains shown, human IgG1/kappa; also called 2H8_HCvar2 + 2H8_LCvar7) VH: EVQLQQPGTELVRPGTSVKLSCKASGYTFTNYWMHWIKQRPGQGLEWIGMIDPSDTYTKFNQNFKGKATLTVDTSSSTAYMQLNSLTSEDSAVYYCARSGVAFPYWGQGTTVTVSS VL: DILMTQSQKFMSTSVGDRVSVTCKASQNVGRNVAWYQQISGQSPKPLIYSASHRYSGVPDRFTGSGSGTDFTLTISNVQSEDLVEFFCQQYNSYPYTFGGGTKLEIK
2. 2H8.03 (antibody, human IgG1, V domains shown, human IgG1/kappa; also called 2H8_HCvar3 + 2H8_LC) VH: EVQLQQSGAELVRPGTSVKLSCKASGYTFTSYWIHWVKQRPGQGLEWIGMIDPSDSYTKYNQKFKDKATLTVDTSSSTTYMHLSSLTSEDSAVYYCARSGVAFPYWGQRTLVTVSA VL: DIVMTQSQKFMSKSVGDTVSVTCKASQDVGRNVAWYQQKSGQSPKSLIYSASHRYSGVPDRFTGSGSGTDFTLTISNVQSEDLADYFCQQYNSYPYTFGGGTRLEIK

OUTPUT:
17.8
17.9
